- Test system: Li-7
- test_protocol: Cell proliferation assay (Alamar Blue)
- Assay type: cell-based
- measurement_setup: Li-7 liver cancer cell line; 6 days culture
observed_property: IC50

Before answering, review these 4 worked examples.
Cc1ccc(F)c(NC(=O)Nc2ccc(-c3cccc4[nH]nc(NC(=O)CCCCCCCCCCCNC(=O)C[C@H](N)C(=O)N[C@@H](CCC(=O)O)C(=O)O)c34)cc2)c1 ... > 100 µM
Cc1ccc(F)c(NC(=O)Nc2ccc(-c3cccc4[nH]nc(NC(=O)CCCCCNC(=O)C[C@H](N)C(=O)O)c34)cc2)c1 ... > 100 µM
Cc1ccc(F)c(NC(=O)Nc2ccc(-c3cccc4[nH]nc(NC(=O)CCCCCCCCCCCNC(=O)C[C@H](N)C(=O)N[C@@H](CCC(=O)N[C@@H](CCC(=O)N[C@@H](CCC(=O)N[C@@H](CCC(=O)N[C@@H](CCC(=O)N[C@@H](CCC(=O)N[C@@H](CCC(=O)N[C@@H](CCC(=O)N[C@@H](CCC(=O)O)C(=O)O)C(=O)O)C(=O)O)C(=O)O)C(=O)O)C(=O)O)C(=O)O)C(=O)O)C(=O)O)c34)cc2)c1 ... > 100 µM
Cc1ccc(F)c(NC(=O)Nc2ccc(-c3cccc4[nH]nc(NC(=O)CCCCCCCCCCCNC(=O)C[C@H](N)C(=O)O)c34)cc2)c1 ... 90.4 µM

Proceeding to the next compound to report its IC50.
Incoming: Quick check: IC50 of Cc1ccc(F)c(NC(=O)Nc2ccc(-c3cccc4[nH]nc(NC(=O)CCCCCNC(=O)C[C@H](N)C(=O)N[C@@H](CCC(=O)O)C(=O)O)c34)cc2)c1 ?
Outgoing: > 100 µM

###

- Test system: K562
- test_protocol: Cell proliferation assay (Alamar Blue)
- Assay type: cell-based
- measurement_setup: Homo sapiens, 144 h; K562 tumor cell line; 6 days culture
observed_property: IC50 (µM)

Cc1ccc(F)c(NC(=O)Nc2ccc(-c3cccc4[nH]nc(NC(=O)C[C@H](N)C(=O)N[C@@H](CCC(=O)O)C(=O)O)c34)cc2)c1 ... 17.2
Cc1ccc(F)c(NC(=O)Nc2ccc(-c3cccc4[nH]nc(NC(=O)C[C@H](N)C(=O)O)c34)cc2)c1 ... 14.6

###

- Tested on: SNU886
- test_protocol: Cell proliferation assay (Alamar Blue)
- Type: cell-based
- measurement_setup: SNU886 liver cancer cell line; 6 days culture
pIC50: −log10 of the molar value.
observed_property: pIC50

(P) Cc1ccc(F)c(NC(=O)Nc2ccc(-c3cccc4[nH]nc(NC(=O)CCCCCCCCCCCNC(=O)C[C@H](N)C(=O)O)c34)cc2)c1 [Compound 12]
(Q) Cc1ccc(F)c(NC(=O)Nc2ccc(-c3cccc4[nH]nc(NC(=O)CCCCCCCCCCCNC(=O)C[C@H](N)C(=O)N[C@@H](CCC(=O)O)C(=O)O)c34)cc2)c1 [Compound 7]
Incoming: Sort P and Q by pIC50 descending and give the first. Mark your answer with the label of the selected entry.
Outgoing: P
(P: 4.38, Q: 4.12)

###

- System: LNCAP-clone-FGC
- test_protocol: Cell proliferation assay (Alamar Blue)
- Type: cell-based
- measurement_setup: Homo sapiens, 144 h; LNCAP-clone-FGC tumor cell line; 6 days culture
pIC50: −log10 of the molar value.
observed_property: pIC50

Cc1ccc(F)c(NC(=O)Nc2ccc(-c3cccc4[nH]nc(NC(=O)C[C@H](N)C(=O)N[C@@H](CCC(=O)O)C(=O)O)c34)cc2)c1 [Compound 1] ... 4.81

(A) Cc1ccc(F)c(NC(=O)Nc2ccc(-c3cccc4[nH]nc(NC(=O)C[C@H](N)C(=O)O)c34)cc2)c1 [Compound 10]
(B) Cc1ccc(F)c(NC(=O)Nc2ccc(-c3cccc4[nH]nc(NC(=O)C[C@H](N)C(=O)N[C@@H](CCC(=O)N[C@@H](CCC(=O)N[C@@H](CCC(=O)N[C@@H](CCC(=O)O)C(=O)O)C(=O)O)C(=O)O)C(=O)O)c34)cc2)c1 [Compound 2]
Incoming: Sort A and B by pIC50 descending and give the first. Mark your answer with the label of the selected entry.
Outgoing: A
(A: 4.83, B: 4.58)
